Target: uPAR (Homo sapiens, UniProt Q03405)
Sequence (Q03405 23-335): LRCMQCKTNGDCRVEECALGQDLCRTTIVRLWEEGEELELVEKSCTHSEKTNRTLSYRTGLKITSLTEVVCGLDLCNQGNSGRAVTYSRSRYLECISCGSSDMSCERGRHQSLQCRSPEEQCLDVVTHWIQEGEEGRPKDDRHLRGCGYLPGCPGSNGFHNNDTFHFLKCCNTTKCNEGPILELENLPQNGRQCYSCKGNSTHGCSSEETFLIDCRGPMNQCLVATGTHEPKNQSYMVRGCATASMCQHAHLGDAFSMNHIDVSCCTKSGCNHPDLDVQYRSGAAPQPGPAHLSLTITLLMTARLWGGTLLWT
Assay: Fluorescence polarization competition assay, displacement of AE147-FAM peptide
Assay type: binding
Details: Ki, uPAR 320 nM, AE147-FAM 100 nM
Assay metric: Ki (µM)

// solved cases for Ki follow
# Given smiles, Assay metric, Result number
records = [
    ("Cc1ccc(-n2ncc(C(=O)Nc3ccc(C(C)C)cc3)c2C2CCNCC2)cc1C", "Ki", 63.3),
    ("Cc1ccc(-n2ncc(C(=O)NCCc3ccc(F)cc3)c2C2CCNCC2)cc1C", "Ki", 28.3),
    ("COc1cc(NC(=O)c2cnn(-c3ccc(C)c(C)c3)c2C2CCNCC2)cc(C(F)(F)F)c1", "Ki", 51.2),
]

1: Cc1ccc(-n2ncc(C(=O)Nc3ccccc3OCc3ccccc3)c2C2CCNCC2)cc1C
2: CCCc1ccc(NC(=O)c2cnn(-c3ccc(C)c(C)c3)c2C2CCNCC2)cc1
Q: Compare reported Ki values for 1 and 2 . Which is lower? API: response body contains the label of the selected item.
A: 1
